Molecular target: T1, human CD3εγ-Fc heterodimer (human)
T1 construct: also called human CD3εγ recombinant protein; human CD3εγ protein
T1 chain 1: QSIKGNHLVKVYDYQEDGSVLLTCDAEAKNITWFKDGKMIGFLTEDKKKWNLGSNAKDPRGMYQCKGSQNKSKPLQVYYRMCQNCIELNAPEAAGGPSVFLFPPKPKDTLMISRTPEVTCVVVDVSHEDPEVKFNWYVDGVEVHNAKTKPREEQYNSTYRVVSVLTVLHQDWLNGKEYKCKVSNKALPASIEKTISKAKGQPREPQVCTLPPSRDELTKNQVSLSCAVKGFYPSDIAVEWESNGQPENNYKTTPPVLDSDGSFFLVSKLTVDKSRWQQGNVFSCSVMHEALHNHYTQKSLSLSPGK
T1 chain 2: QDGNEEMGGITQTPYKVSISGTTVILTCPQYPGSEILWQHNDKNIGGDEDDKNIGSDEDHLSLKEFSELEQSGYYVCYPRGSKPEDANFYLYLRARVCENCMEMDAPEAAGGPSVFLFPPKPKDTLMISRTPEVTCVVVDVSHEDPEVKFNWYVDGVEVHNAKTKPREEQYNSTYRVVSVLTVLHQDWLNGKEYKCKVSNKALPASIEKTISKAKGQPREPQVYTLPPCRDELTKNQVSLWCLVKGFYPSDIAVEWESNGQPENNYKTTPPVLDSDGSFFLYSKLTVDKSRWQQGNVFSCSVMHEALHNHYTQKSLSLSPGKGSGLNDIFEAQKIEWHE
Test: ELISA, coated human CD3εγ recombinant protein
observation_type: affinity (ELISA) (nM)
Answers are plain numbers, in nM.

Q: Which measured affinity (ELISA) value corresponds to aCD3-hVH1/VL5 (antibody, human IgG4, V domains shown, also called humanized anti-CD3 antibody hVH1/VL5) VH: EVQLVESGGGLVQPGGSLRLSCAASGFTFNTYAMNWVRQAPGKGLEWVSRIRSKYNNYATYYADSVKDRFTISRDDSKNTLYLQMNSLRAEDTAVYYCVRHGNFGNSYVSWFAYWGQGTLVTVSS VL: QAVVTQEPSLTVSPGGTVTLTCRSSTGAVTTSNYANWVQEKPGQAPRGLIGGTNKRAPWTPARFSGSLLGGKAALTITGAQAEDEAEYYCVLWYSNLWVFGGGTKLTVL ?
A: 0.6
